All figures here come from ChEMBL document CHEMBL4715736.

What LC50 (concentration killing 50% of cells) was measured for each of the following?
- System: COLO 205
- protocol-description: Growth inhibition of human COLO 205 cells incubated for 48 hrs by sulforhodamine B assay
- Type: functional

>>> df
                                smiles_code    result
0  CCc1ccccc1NC(=O)c1sc2nc3c(cc2c1N)C(=O)CCC3  > 100 µM

Give one value of LC50 (concentration killing 50% of cells) per listed compound.
1. Nc1c(C(=O)Nc2ccccc2)sc2nc3c(cc12)CN(Cc1ccccc1)CC3
2. Cc1ccc(NC(=O)c2sc3nc4c(cc3c2N)C(=O)CCC4)cc1C
3. CN1CCc2nc3sc(C(N)=O)c(N)c3c(-c3cccs3)c2C1

1: > 100 µM; 2: ≥ 100 µM; 3: 9.35 µM

Give one value of LC50 (concentration killing 50% of cells) per listed compound.
1. Cc1cc(C)c(NC(=O)c2sc3nc4c(cc3c2N)CN(Cc2ccccc2)CC4)c(C)c1
2. Cc1cccc(NC(=O)c2sc3nc4c(cc3c2N)C(=O)CCC4)c1
3. COc1cccc(NC(=O)c2sc3nc4c(cc3c2N)CN(Cc2ccccc2)CC4)c1

["68.8 µM", "> 100 µM", "> 100 µM"]

====

- System: K562
- protocol-description: Growth inhibition of human K562 cells assessed as cell growth at 100 uM incubated for 48 hrs by sulforhodamine B assay relative to control
- Format: functional
- condition-parameters: read-out: Activity
readout: growth at 100 µM (%)
Give bare numbers, in %.

Example cases with answers are listed next.
In [3]: df
Out[3]:
                                smiles_code           readout  numeric_result
0  CCc1ccccc1NC(=O)c1sc2nc3c(cc2c1N)C(=O)CCC3  growth at 100 µM              13
1  Cc1cccc(NC(=O)c2sc3nc4c(cc3c2N)C(=O)CCC4)c1  growth at 100 µM              17
2  Nc1c(C(=O)Nc2ccccc2)sc2nc3c(cc12)CN(Cc1ccccc1)CC3  growth at 100 µM              12
3  CCc1cccc(C)c1NC(=O)c1sc2nc3c(cc2c1N)C(=O)CCC3  growth at 100 µM             -52
4  COc1cccc(NC(=O)c2sc3nc4c(cc3c2N)CN(Cc2ccccc2)CC4)c1  growth at 100 µM               8

Give one value of growth at 100 µM per listed compound.
1. Cc1cc(C)c(NC(=O)c2sc3nc4c(cc3c2N)CN(Cc2ccccc2)CC4)c(C)c1
2. Cc1ccc(NC(=O)c2sc3nc4c(cc3c2N)C(=O)CCC4)cc1C

1: 13; 2: -4

Entry under review: CN1CCc2nc3sc(C(N)=O)c(N)c3c(-c3cccs3)c2C1 . Reported growth at 100 µM? 2

====

- Tested on: SK-MEL-2
- protocol-description: Growth inhibition of human SK-MEL-2 cells assessed as cell growth at 0.01 uM incubated for 48 hrs by sulforhodamine B assay relative to control
- Type: functional
- condition-parameters: read-out: Activity
readout: growth at 0.01 µM (%)
One number for each entry, in %.

Example cases with answers are listed next.
                                smiles_code  unit_spec  numeric_result
0  CCc1ccccc1NC(=O)c1sc2nc3c(cc2c1N)C(=O)CCC3          %             108
1  Nc1c(C(=O)Nc2ccccc2)sc2nc3c(cc12)CN(Cc1ccccc1)CC3          %              96

Give one value of growth at 0.01 µM per listed compound.
1. Cc1ccc(NC(=O)c2sc3nc4c(cc3c2N)C(=O)CCC4)cc1C
2. Cc1cccc(NC(=O)c2sc3nc4c(cc3c2N)C(=O)CCC4)c1

1: 105; 2: 101

====

- Tested on: A549
- protocol-description: Growth inhibition of human A549/ATCC cells assessed as cell growth at 100 uM incubated for 48 hrs by sulforhodamine B assay relative to control
- Type: functional
- condition-parameters: read-out: Activity
readout: growth at 100 µM (%)
Give bare numbers, in %.

>>> df
                                smiles_code  numeric_result
0  CCc1ccccc1NC(=O)c1sc2nc3c(cc2c1N)C(=O)CCC3              12
1  Nc1c(C(=O)Nc2ccccc2)sc2nc3c(cc12)CN(Cc1ccccc1)CC3              17

Entry under review: Cc1cccc(NC(=O)c2sc3nc4c(cc3c2N)C(=O)CCC4)c1 . Reported growth at 100 µM? 19

====

What TGI was measured for each of the following?
- System: SF-295
- protocol-description: Growth inhibition of human SF-295 cells incubated for 48 hrs by sulforhodamine B assay
- Format: functional

Give one value of TGI per listed compound.
1. CCc1cccc(C)c1NC(=O)c1sc2nc3c(cc2c1N)C(=O)CCC3
2. Nc1c(C(=O)Nc2ccccc2)sc2nc3c(cc12)CN(Cc1ccccc1)CC3
3. Cc1cccc(NC(=O)c2sc3nc4c(cc3c2N)C(=O)CCC4)c1
4. Cc1cc(C)c(NC(=O)c2sc3nc4c(cc3c2N)CN(Cc2ccccc2)CC4)c(C)c1
5. Cc1ccc(NC(=O)c2sc3nc4c(cc3c2N)C(=O)CCC4)cc1C

> 100 µM
> 100 µM
≥ 100 µM
64.7 µM
> 100 µM

====

- Test system: MDA-MB-435
- protocol-description: Growth inhibition of human MDA-MB-435 cells assessed as cell growth at 10 uM incubated for 48 hrs by sulforhodamine B assay relative to control
- Assay type: functional
- condition-parameters: read-out: Activity
What growth at 10 µM was measured for each of the following?
Answers are plain numbers, in %.

>>> df
                                smiles_code  numeric_result
0  CCc1ccccc1NC(=O)c1sc2nc3c(cc2c1N)C(=O)CCC3           -56.6
1  Cc1ccc(NC(=O)c2sc3nc4c(cc3c2N)C(=O)CCC4)cc1C             -67

Okay, now this compound:
Entry under review: Cc1cc(C)cc(S(=O)(=O)n2ccc(-c3ccc4c(c3)CCC(C)(C)O4)n2)c1 . Reported growth at 10 µM? 93.8

====

- Test system: HCT-116
- protocol-description: Growth inhibition of human HCT-116 cells assessed as cell growth at 0.01 uM incubated for 48 hrs by sulforhodamine B assay relative to control
- Assay type: functional
- condition-parameters: read-out: Activity
What growth at 0.01 µM was measured for each of the following?
Give bare numbers, in %.

                                smiles_code  numeric_result
0  CCc1ccccc1NC(=O)c1sc2nc3c(cc2c1N)C(=O)CCC3              99

Give one value of growth at 0.01 µM per listed compound.
1. Cc1cc(C)c(NC(=O)c2sc3nc4c(cc3c2N)CN(Cc2ccccc2)CC4)c(C)c1
2. Cc1ccc(NC(=O)c2sc3nc4c(cc3c2N)C(=O)CCC4)cc1C
3. Nc1c(C(=O)Nc2ccccc2)sc2nc3c(cc12)CN(Cc1ccccc1)CC3
4. COc1cccc(NC(=O)c2sc3nc4c(cc3c2N)CN(Cc2ccccc2)CC4)c1
5. CN1CCc2nc3sc(C(N)=O)c(N)c3c(-c3cccs3)c2C1

1. 93
2. 99
3. 100
4. 91
5. 100

Give one value of growth at 0.01 µM per listed compound.
1. CCc1cccc(C)c1NC(=O)c1sc2nc3c(cc2c1N)C(=O)CCC3
2. Cc1cccc(NC(=O)c2sc3nc4c(cc3c2N)C(=O)CCC4)c1

[92, 93]

====

What growth at 10 µM was measured for each of the following?
- Test system: HOP-92
- protocol-description: Growth inhibition of human HOP-92 cells assessed as cell growth at 10 uM incubated for 48 hrs by sulforhodamine B assay relative to control
- Format: functional
- condition-parameters: read-out: Activity
Numbers only, in %.

Example cases with answers are listed next.
>>> print(df.to_string())
                                smiles_code  numeric_result
0    CC(=O)c1ccc2c(N)c(C(=O)Nc3ccccc3)sc2n1              74
1  CC1(C)CCc2cc(-c3ccn(S(=O)(=O)c4ccc(C(C)(C)C)cc4)n3)ccc2O1            73.2
2  CC(=O)c1cccc(NC(=O)c2sc3nc4c(cc3c2N)C(=O)CCC4)c1            92.8
3  COc1ccc(S(=O)(=O)n2ccc(-c3ccc4c(c3)CCC(C)(C)O4)n2)cc1            61.4
4  CC(C)N1CCc2nc3sc(C(=O)Nc4ccccc4)c(N)c3cc2C1            55.6

Give one value of growth at 10 µM per listed compound.
1. O=S(=O)(c1ccccc1)n1ccc(-c2ccc3c(c2)CCO3)n1
2. O=S(=O)(c1ccc(Br)cc1)n1ccc(-c2ccc(OCCCF)cc2)n1

41.8
74.1
